- System: Escherichia Coli Resistant Gentamicine, Tobramycine R 55 123 D
- procedure details: MIC, dilution in liquid medium
- Assay type: cell-based
- test context: Escherichia coli, 48 h; read-out: M.I.C.
Listing: MIC of selected compounds
The response must be a number in µg/mL with no trailing unit.

Solved cases below.
INSERT INTO assay_data (compound, target_under_test, unit_symbol, reported_result) VALUES
  ('CC(=O)OCC1=C(C(=O)O)N2C(=O)C(NC(=O)/C(=N\O)c3csc(N)n3)C2SC1 (centres unmarked)', 'Escherichia Coli Resistant Gentamicine, Tobramycine R 55 123 D', 'µg/mL', 0.2),
  ('CO/N=C(/C(=O)NC1C(=O)N2C(C(=O)O)=C(COC(C)=O)CSC12)c1csc(N)n1 (centres unmarked)', 'Escherichia Coli Resistant Gentamicine, Tobramycine R 55 123 D', 'µg/mL', 10),
  ('C=CO/N=C(\C(=O)NC1C(=O)N2C(C(=O)O)=C(COC(C)=O)CSC12)c1csc(N)n1 (centres unmarked)', 'Escherichia Coli Resistant Gentamicine, Tobramycine R 55 123 D', 'µg/mL', 0.5);

Param readout = MIC; param system = Escherichia Coli Resistant Gentamicine, Tobramycine R 55 123 D; param query = CCO/N=C(/C(=O)NC1C(=O)N2C(C(=O)O)=C(COC(C)=O)CSC12)c1csc(N)n1 (centres unmarked) ; response: value
100

Param readout = MIC; param system = Escherichia Coli Resistant Gentamicine, Tobramycine R 55 123 D; param query = CCO/N=C(\C(=O)N[C@@H]1C(=O)N2C(C(=O)O)=C(COC(C)=O)CS[C@H]12)c1csc(N)n1 ; response: value
0.6
